Molecular target: EGFR Δ746-750/T790M/C797S mutant (Homo sapiens (Human), UniProt P00533, C797S/DEL746-750/T790M)
Sequence (P00533 other isoform, or with tags, fused parts or gaps T790M/C797S/del 1-668/del 746-750 limits assumed): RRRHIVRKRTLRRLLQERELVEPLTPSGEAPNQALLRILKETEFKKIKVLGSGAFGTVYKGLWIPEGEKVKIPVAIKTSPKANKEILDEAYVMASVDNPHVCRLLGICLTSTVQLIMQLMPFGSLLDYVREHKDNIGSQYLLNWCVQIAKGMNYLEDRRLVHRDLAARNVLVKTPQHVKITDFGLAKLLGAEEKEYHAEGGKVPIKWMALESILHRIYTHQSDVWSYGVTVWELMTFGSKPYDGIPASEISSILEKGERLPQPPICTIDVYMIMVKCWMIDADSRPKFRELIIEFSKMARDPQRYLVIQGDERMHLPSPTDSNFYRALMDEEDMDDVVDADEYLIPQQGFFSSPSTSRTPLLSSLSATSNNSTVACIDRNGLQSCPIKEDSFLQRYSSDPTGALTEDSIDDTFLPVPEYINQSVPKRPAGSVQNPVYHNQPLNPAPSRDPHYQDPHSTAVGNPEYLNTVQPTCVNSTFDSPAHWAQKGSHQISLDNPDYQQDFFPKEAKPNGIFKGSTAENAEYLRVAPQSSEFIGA
Assay: HotSpot radiometric kinase assay, EGFR Δ746-750/T790M/C797S
Conditions: radiometric filter-binding, 10 μM ATP
pIC50: −log10 of the molar value.
outcome measure: pIC50

INSERT INTO assay_data (molecule, value) VALUES
  ('Cn1ncc2c1COCCOc1ccccc1/C=C/c1n[nH]c3cnc-2cc13', 9.70),
  ('CN1CCOCCN(c2ccc(F)c(Cl)c2)c2cc3c(n[nH]c3cn2)/C=C/c2cn(C)nc2C1=O', 5.47),
  ('Cn1ncc2c1OCCCOc1ccccc1/C=C/c1n[nH]c3ccc-2nc13', 7.53),
  ('Cn1ncc2c1OCCCOc1ccccc1/C=C/c1n[nH]c3ccc-2cc13', 7.99),
  ('CCc1nn(C)c2c1/C=C/c1n[nH]c3cnc(cc13)-c1cc(F)ccc1OCCN(C)C2=O', 9.30),
  ('Cn1ncc2c1OCCCOc1ccccc1/C=C/c1n[nH]c3cnc-2cc13', 9.66),
  ('Cn1ncc2c1COCCOc1ccccc1/C=C/c1n[nH]c3cnc-2nc13', 8.29),
  ('Cc1ccc2c(n1)/C=C/c1n[nH]c3cnc(nc13)-c1cnn(C)c1C(C)OCCO2 (centres unmarked)', 8.41);

Source: patent US20240182487A1
